# credit: patent US11230591

# Tested target: recombinant pentameric gH complex (Towne strain) (human cytomegalovirus, Towne strain) (UniProt P17176)
# Sequence (P17176 30-715, one chain of several): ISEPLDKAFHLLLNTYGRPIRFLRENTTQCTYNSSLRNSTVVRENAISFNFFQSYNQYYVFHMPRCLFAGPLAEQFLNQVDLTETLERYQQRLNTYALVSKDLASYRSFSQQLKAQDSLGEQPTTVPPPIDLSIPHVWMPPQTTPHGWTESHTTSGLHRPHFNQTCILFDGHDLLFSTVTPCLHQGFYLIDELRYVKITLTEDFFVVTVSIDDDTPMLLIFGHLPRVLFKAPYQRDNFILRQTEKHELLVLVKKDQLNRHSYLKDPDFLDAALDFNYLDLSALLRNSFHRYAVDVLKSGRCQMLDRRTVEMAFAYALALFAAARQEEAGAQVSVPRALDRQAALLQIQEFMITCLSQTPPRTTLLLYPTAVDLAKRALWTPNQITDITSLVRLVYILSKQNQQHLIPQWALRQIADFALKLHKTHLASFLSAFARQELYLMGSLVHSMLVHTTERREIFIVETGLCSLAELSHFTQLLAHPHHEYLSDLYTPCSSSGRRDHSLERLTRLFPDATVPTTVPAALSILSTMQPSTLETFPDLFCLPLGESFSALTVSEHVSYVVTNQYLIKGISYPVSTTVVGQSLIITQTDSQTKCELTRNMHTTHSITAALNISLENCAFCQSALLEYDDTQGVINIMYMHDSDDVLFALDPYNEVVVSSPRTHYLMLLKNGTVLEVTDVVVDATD
# Assay method text: BLI competition on His-pentamer; competitor (antibody 2): 57.4
Quantity: Pair-wise inhibition (%)
// units = %; emit number, no label

Below, 3 binders whose answers are already recorded.
[
  {
    "Binder": "2-25 (antibody, V domains shown) VH: QVQLVESGAEVKKPGALVKVSCKASGYTFTNYAIHWVRQASGQRLEWMGWINAGRGNTKYSQKFQGRVTITRDTSASTAYMELSSLRSEDAAVYFCARDESTGDYYYYMDVWGKGTTVTVSS VL: SYELTQPPSVSVSPGQTASITCSGDRLDDKYASWYQQKAGQSPVLVIYQDNKRPSGIPERFSGSNSGNTATLTISGTQAMDEADYYCQAWDSDTYVFGTGTKVTVL",
    "Quantity": "Pair-wise inhibition (%)",
    "Observed": 15
  },
  {
    "Binder": "1-150 (antibody, V domains shown) VH: QVQLVESGGGLVKPGGSLRLSCAASGFSFSAYYMSWIRQAPGKGLEWISYISSSGNTIYYTDSVKGRFTIARDNAKNSLYLQMNSLRAEDTGLYYCARDSYSKLADIEATEAFDVWGQGTMVAVSS VL: SYELTQPPSVSVAPGKTARITCGGNNIGSKSVHWYQQKPGQAPVMVIYYDSDRPSGIPERFSGSNSGNTATLTISRVEAGDEADYYCQVWDSGSDRVVFGGGTKLTVL",
    "Quantity": "Pair-wise inhibition (%)",
    "Observed": -19
  },
  {
    "Binder": "3-7 (antibody, V domains shown) VH: QVQLVQSGAEVKKPGASVKVSCKTSGYTFNTYAISWVRQAPGQGLEWVGWINTYSGSTKYAQKVQGRVTMTTDTSTSTAYMELRGLRSDDTAVYYCARDGYNWGFLDFWGQGSLVTVSS VL: DIQMTQSPSSLSASVGDRVTITCRASQGISNYLAWYQQKPGKLPKLLIYAASTLQSGVPSRFSGSGSGTDFTLTISSLQPEDVASYYCQKYNSAPLTFGPGTKVDIK",
    "Quantity": "Pair-wise inhibition (%)",
    "Observed": 20
  }
]

Query: Fill blank: measured Pair-wise inhibition (%) of the binder 1-103 (antibody, V domains shown) VH: QLQLQESGPGLVKPSETLSLTCSVSGDAISGSNYYWGWIRQPPGKGLQWIGSIYHTGSTFYNPSFSSRVTLSVDTSKNQFSLKLISVNAADTAVYYCARRIRGYSGTYDWGQGTLVTVSS VL: DIQLTQSPSFLSASVGDRVTITCRASQDISSYVAWYQQKPGNAPKLLISSASTLPSGVPSRFSGSRSGTDFTLTISSLQPEDFATYYCQQLNNFGPGTTVDIK is ____.
Response: -4
